All figures here come from PubChem BioAssay (NCI).

- Protocol Summary: NCI Yeast Anticancer Drug Screen. Data for the mlh1 rad18 strain (AID 175)
- Cond: S. cerevisiae mlh1 rad18 strain growth inhibition; at 5.0 µM (retest, dose inferred, filed as 0.5)
About 79,000 compounds went through this panel and 15% of them were active in at least one assay; those are over-represented in the sample as a whole. Activity calls are given as the source filed them. No stated cut-off is given here; in the data, active means growth inhibition above about 70%; inactive means the rest.
Answer with one of the outcomes true (1) for active, false (0) for inactive

Example cases with answers are listed next.
O=[N+]([O-])c1ccc(N2N=NC(CN3CCOCC3)C2N2CCOCC2)cc1 (stereo not drawn)
false (0)
CCOC(=O)C(CCOC)C(=O)OCC
false (0)
FC(F)(F)c1cc(NC(=S)SC2CCCCC2)ccc1Cl
false (0)
COc1ccccc1NC(=O)/C(=C/n1c(=S)sc2ccccc21)C(C)=O
false (0)
CC1CCC(C(C)(C)c2ccc(O)cc2)CC1 (stereo not drawn)
false (0)
CN(CN(C)N=Nc1ccc(Cl)cc1)CN(C)N=Nc1ccc(Cl)cc1
false (0)
Cc1csc2c1C(=O)c1ccsc1C2=O
false (0)
CCCCCCCN=C(N)c1ccc(C(=O)OC2CCCCC2)cc1
false (0)
CC(C)NC(=O)O/N=C1\CCC2[C@@H]3CC=C4C[C@@H](OC(=O)NC(C)C)CC[C@]4(C)C3CC[C@]12C (stereo partly drawn)
true (1)
Cc1c2ccncc2c(C)c2c1sc1ccccc12
true (1)

We next turn to a different molecule, shown below.
Please state the recorded outcome for this molecule: Oc1c(Cl)cc(Cl)cc1Br false (0)

###

- Protocol Summary: NCI Yeast Anticancer Drug Screen. Data for the rad50 strain (AID 155);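 further: 0% = growth of vehicle-only cultures of the same strain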
- Cond: S. cerevisiae rad50 strain growth inhibition; at 50.0 µM; active compounds read high
About 79,000 compounds went through this panel and 15% of them were active in at least one assay; those are over-represented in the sample as a whole.
Give class 1 when the value for growth inhibition is at least 10%. Give class 0 when it is less.

COc1ccc(NC(=O)Nc2ccc(Cl)cc2)nn1
class 0
COc1c(OC)c(C2(O)C(=O)N(C)c3ccccc32)c(OC)c(OC)c1C1(O)C(=O)N(C)c2ccccc21 (configuration not stated)
class 0
O=C1C=C(Cl)C(=O)C2=C1CCCC2
class 1
CN1CCCCC1c1cc2c3ccccc3ccn2c1-c1ccccc1 (configuration not stated)
class 1
COC1CC(C)(NC(C)=O)C2OC(c3ccccc3)OCC2O1 (configuration not stated)
class 1
O=C1C(C=NC(=S)c2ccccc2)=C(O)c2ccccc21
class 0

Does CCCC(O)[C@@]1(CC)CC(C)C(O)(C2(C)C[C@H](C)[C@@H](C(CC)C(=O)C(C)[C@@H](O)[C@H](C)C3OC(O)(C(CC)C(=O)O)[C@@H](C)C(O)C3CC)O2)O1 (some centres not stated) have a reported growth inhibition of at least 10%? class 1

Determine whether measured growth inhibition meets or exceeds 10% for O=c1c2cc(Br)ccc2ncn1COCc1ccccc1 class 0

###

# growth inhibition per entry
- Protocol Summary: NCI Yeast Anticancer Drug Screen. Data for the cln2 rad14 strain (AID 165);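 further: 0% = growth equal to vehicle treated cultures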
- Cond: S. cerevisiae cln2 rad14 strain, at 50.0 µM, active compounds read high
About 79,000 compounds went through this panel and 15% of them were active in at least one assay; those are over-represented in the sample as a whole.
Numeric only. Scale: %

COc1c(OC)c(C2(O)C(=O)N(C)c3ccccc32)c(OC)c(OC)c1C1(O)C(=O)N(C)c2ccccc21 (centres undefined)
-0.05
O=C(Nc1ccc(Cl)c(Cl)c1Cl)Oc1c(Cl)c(Cl)c(Cl)c(Cl)c1Cl
99.2
CN(C)CCCNc1cc(/C=C/c2ccc([N+](=O)[O-])cc2)nc2ccccc12
39.1
CCCCCCCN1C(=O)c2ccccc2S1(=O)=O
43

Please look up its growth inhibition: C(#Cc1ccccc1)Sc1ccccc1 23.1

For the compound shown here, NC(=O)c1c(Cl)nc2n1CCS2 , give the reported growth inhibition. 8.4

###

- Protocol Summary: NCI Yeast Anticancer Drug Screen. Data for the sgs1 mgt1 strain (AID 161);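 further: 0% = growth of cultures given vehicle only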
- Cond: S. cerevisiae sgs1 mgt1 strain, at 5.0 µM (retest, dose inferred, filed as 0.5)
Compounds without any hit were thinned out: in the full panel of roughly 79,000, 15% have a hit. Active and inactive are the calls of the source. Rule as the data show it: active = growth inhibition above about 70%; inactive = the rest.
Log the outcome using a class from active, inactive

# count of solved cases: 8
CN1CCCCC1c1cc2c3ccccc3ccn2c1-c1ccccc1 (centres undefined)
active
CCCCCCCCCCCCOC(=O)C[n+]1cccc(C(N)=O)c1
inactive
FC(F)(F)c1ccccc1NC(=S)SCc1ccc2c(c1)OCO2
inactive
Cc1cc(NCCCCCCNc2cc(C)nc3cc(N(C)C)ccc23)c2ccc(N(C)C)cc2n1
inactive
CC(=O)OCCSCCOC(C)=O
inactive
COc1ccc2c(Cc3cccc([N+](=O)[O-])c3)cncc2c1O
inactive
c1ccc2c(c1)cc(C1NCCc3[nH]cnc31)c1ccccc12 (centres undefined)
inactive
Cc1c(N2CCCC2)cc2c(c1NC(=O)c1ccccc1Cl)C(C)(C)CC2(C)C
inactive

For CCOC(=O)C(=C=Cc1cccs1)C(=O)c1ccccc1 , what call appears in the results of this test? inactive

What outcome does the record of this test show for Cc1ccc(OS(=O)(=O)c2ccc(Br)cc2)cc1 ? inactive

Called result for O=C1C2C3C=CC(C3)C2C(=O)C2C3C=CC(C3)C12 (centres undefined) inactive

###

- Protocol Summary: NCI Yeast Anticancer Drug Screen. Data for the sgs1 mgt1 strain (AID 161);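 further: 0% = growth of cultures given vehicle only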
- Cond: S. cerevisiae sgs1 mgt1 strain, at 5.0 µM (retest, dose inferred, filed as 0.5), active compounds read high
The panel holds about 79,000 compounds, 15% with a hit somewhere; the sample as a whole holds those more often.
This listing pairs compounds with measured growth inhibition.
Report only the number, with the unit % understood.

O=c1c2cc(Br)ccc2ncn1COCc1ccccc1
21
O=NN(CCCl)C(=O)NCCSSCCNC(=O)N(CCCl)N=O (tested in a mixture with another compound)
40
O=C1c2cccc3cccc(c23)C1(Br)Br
45

Consider the compound Cc1c(CNc2ccc(Cl)c(Cl)c2Cl)cnc2nc(N)nc(N)c12 and give its measured growth inhibition. 19

Given Cc1cc2nc3ccc(N(C)C)cc3nc2cc1N , state its recorded growth inhibition. 42

Fill blank: measured growth inhibition of the compound O=C1/C(=C/c2ccccc2Cl)COc2ccccc21 is ____. 15

Could you share which growth inhibition value was measured for NS(=O)(=O)c1ccc(-n2cccc2)cc1 ? -1

// returns reported growth inhibition for input Cc1[nH]c(=O)[nH]c(=S)c1C(=O)NC1C2CCCCC2NC2CCCCC21 (stereo unspecified) 49

Recorded growth inhibition for CCOc1c(N=Nc2ccc(OC)cc2)c(-c2ccccc2)nn1C(N)=S , please? 10

Give its growth inhibition value. Item: CN1C(OCc2ccccc2)c2c(ccc3c2OCO3)C2C=Cc3cc4c(cc3C21)OCO4 (stereo unspecified) 96

###

- Protocol Summary: NCI Yeast Anticancer Drug Screen. Data for the bub3 strain (AID 167)
- Cond: S. cerevisiae bub3 mutant strain, at 50.0 µM (retest, dose inferred, filed as 5.0)
Compounds without any hit were thinned out: in the full panel of roughly 79,000, 15% have a hit. Calls of active or inactive are those of the source. Rule as the data show it: active = growth inhibition above about 70%; inactive = the rest.
Permitted responses: active, inactive

These solved cases illustrate the format of a correct answer.
COc1cc(OC)c(C(c2cc3c(cc2O)OCO3)N2CCOCC2)c(OC)c1 (configuration not stated)
active
CC(=O)OCCC1=CCC2CC1C2(C)C (configuration not stated)
inactive
CCCC/C=C(/CCCCOCOCCOC)[Si](C)(C)C
inactive
CCOC(=O)C(=Cc1ccc(OC)cc1)C(=O)OCC
active
CCOC(=O)C(=O)Nc1nc2c(s1)C(=O)c1ccccc1C2=O
active
Cc1ccc(C)c(C2CCCCC2O)c1 (configuration not stated)
inactive

Which outcome was entered for the compound CCOC(=O)C(=O)CC1=Nc2ccccc2SC(c2cccc(C)c2)C1 (configuration not stated) in this test? active

###

- Protocol Summary: NCI Yeast Anticancer Drug Screen. Data for the bub3 strain (AID 167)
- Cond: S. cerevisiae bub3 mutant strain, at 50.0 µM, active compounds read high
This is part of a sample that, as a whole, favours compounds with a hit. Of some 79,000 tested, about 15% had one in any assay. The source made the active and inactive calls. Cut-off read from the data, not from the text of the source: active = growth inhibition above about 70%; inactive = the rest.
// growth inhibition lookup, one value per entry

Here are 5 compounds together with their reported answers.
CC(C)(C)NCc1cc(C(C)(C)C)cc(-c2ccc(Cl)cc2)c1O
83.9% (active)
COc1ccc(C2COc3cc(O)c(O)cc3C2)cc1OC (stereo unspecified)
29.6% (inactive)
C=C1C(=O)C23CC[C@H]4C(C)(CCC[C@]4(C)C(=O)O)[C@@H]2CCC1C3 (stereo partly specified)
92% (active)
CCC(C)Sc1nc2c([nH]1)c(=S)n(C)c(=O)n2C (stereo unspecified)
95.7% (active)
CCCCCCCCCCCCCCNCC(OCC)OCC
91.5% (active)

// moving on: another record for growth inhibition
Consider the compound shown here: CC(=O)OCCc1ccc(CCc2ccccc2)cc1 What is its recorded growth inhibition? 67.7% (inactive)
